All figures here come from patent US8841413B2.

# PROCEDURE DETAILS: Stability in simulated gastric fluid
# Format: in vitro ADME
# SETUP CONDITIONS: simulated gi fluid; 2 μM, 37° C., pH 1.5, pepsin; read-out: half-life (t1/2) in simulated gastric fluid
The following molecules are shown together with reported half-life values.
Return type: number; implicit unit min.

1) CCc1cc(OC)ccc1-c1ccc(CC(NC(=O)[C@H](CC(=O)O)NC(=O)[C@H](CO)NC(=O)[C@@H](NC(=O)[C@H](Cc2ccccc2)NC(=O)[C@@H](NC(=O)CNC(=O)[C@H](CCC(N)=O)NC(=O)C2(NC(=O)[C@@H](N)Cc3c[nH]cn3)CC2)[C@@H](C)O)[C@@H](C)O)C(=O)NC(Cc2ccc(-c3ccccc3F)cc2)C(N)=O)cc1 (single isomer, unassigned) [compound 19] | 240

For this molecule ( CCc1cc(OC)ccc1-c1ccc(CC(NC(=O)[C@H](CC(=O)O)NC(=O)[C@H](CO)NC(=O)[C@@H](NC(=O)[C@H](Cc2ccccc2)NC(=O)[C@@H](NC(=O)CNC(=O)[C@H](CCC(N)=O)NC(=O)C(C)(C)NC(=O)[C@@H](N)Cc2c[nH]cn2)[C@@H](C)O)[C@@H](C)O)C(=O)NC(Cc2ccc(-c3ccccc3F)cc2)C(N)=O)cc1 (single isomer, unassigned) [compound 15] ), measured half-life is 240
